- study system: Beta-lactamase (Klebsiella pneumoniae) (UniProt Q93LQ9)
- Sequence (Q93LQ9 as listed by the source): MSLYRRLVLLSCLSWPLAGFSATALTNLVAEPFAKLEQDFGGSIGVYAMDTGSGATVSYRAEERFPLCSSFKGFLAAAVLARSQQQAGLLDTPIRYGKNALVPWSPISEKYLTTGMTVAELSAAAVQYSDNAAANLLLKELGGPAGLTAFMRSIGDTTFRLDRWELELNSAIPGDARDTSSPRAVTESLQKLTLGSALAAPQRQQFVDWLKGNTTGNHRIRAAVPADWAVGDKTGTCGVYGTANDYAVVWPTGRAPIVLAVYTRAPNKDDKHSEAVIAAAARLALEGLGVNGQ
- method summary: Inhibition of Klebsiella pneumoniae KP1004 KPC-2 assessed as minimum concentration of compound needed to reduce the MIC of aztreonam to 4 ug/ml
property name: MEC (µg/mL)
Supply the numeric figure in µg/mL, leaving out any unit text.

Record excerpt, results attached:
structure_smiles=C[C@@H]1Cc2cccc(C(=O)O)c2OB1O study_system="Beta-lactamase (Klebsiella pneumoniae) (UniProt Q93LQ9)" unit_text=µg/mL measured=5
structure_smiles=COc1ccc2c(c1C(=O)O)OB(O)[C@@H](CCO)C2 study_system="Beta-lactamase (Klebsiella pneumoniae) (UniProt Q93LQ9)" unit_text=µg/mL measured=5
structure_smiles=O=C(O)c1nccc2c1OB(O)[C@@H]1C[C@H]21 study_system="Beta-lactamase (Klebsiella pneumoniae) (UniProt Q93LQ9)" unit_text=µg/mL measured=0.6

Recorded MEC (compound COc1ccc2c(c1C(=O)O)OB(O)C(F)=C2 ): 0.16

Recorded MEC (compound Nc1nnc(S[C@H]2Cc3cccc(C(=O)O)c3OB2O)s1 ): 10

----------
- method summary: Cmax in rat at 100 mg/kg, po administered via gavage by HPLC/MS analysis
- Type: ADME, organism-based
- Design: dose 100 mg/kg, route oral
- stated conditions: in vivo
property name: Cmax (ng/mL)
Supply the numeric figure in ng/mL, leaving out any unit text.

Recorded Cmax (molecule O=C(O)c1c(F)ccc2c1OB(O)[C@@H]1C[C@H]21 ): 28800

----------
- method summary: Cmax in rat at 300 mg/kg, po administered via gavage by HPLC/MS analysis
- Type: ADME, organism-based
- Parameters: dose 300 mg/kg, route oral
- stated conditions: in vivo
property name: Cmax (µg/mL)
Supply the numeric figure in µg/mL, leaving out any unit text.

Recorded Cmax (compound O=C(O)c1c(F)ccc2c1OB(O)[C@@H]1C[C@H]21 ): 52

----------
- System: Klebsiella pneumoniae
- method summary: Inhibition of Klebsiella pneumoniae KP1009 CTX-M-15 assessed as minimum concentration of compound required to reduce the MIC of aztreonam to 4 ug/ml
Entries annotated with measured MEC
Supply the numeric figure in µg/mL, leaving out any unit text.

Record excerpt, results attached:
molecule=O=C(O)c1c(OCCF)ccc2c1OB(O)[C@@H](Sc1nncs1)C2 property_name=MEC measured=20
molecule=O=C(O)c1c(F)ccc2c1OB(O)[C@@H](Sc1nncs1)C2 property_name=MEC measured=10
molecule=COCCOc1ccc2c(c1C(=O)O)OB(O)[C@@H](Sc1nncs1)C2 property_name=MEC measured=20
molecule="COc1ccc2c(c1C(=O)O)OB(O)C1CC21 (configuration not stated)" property_name=MEC measured=0.3

Shifting focus to the molecule that follows.
Recorded MEC (molecule O=C(O)c1cccc2c1OB(O)CC2 ): 20

----------
Entries annotated with measured pKi
- study system: Class A carbapenemase KPC-2 (Escherichia coli, UniProt A8DS27)
- Sequence (A8DS27 whole entry): as the sequence (Q93LQ9 as listed by the source) above
- method summary: Inhibition of recombinant Escherichia coli KPC-2 using nitrocefin as substrate preincubated for 10 mins followed by substrate addition and measured every 10 secs for 10 mins by spectrophotometric analysis
Give only the number. pKi is defined as minus log10 of concentration in molar units.

structure_smiles=NC(=O)[C@@H]1CC[C@@H]2CN1C(=O)N2OS(=O)(=O)O property_name=pKi measured=7.96
structure_smiles=Nc1nnc(SCC(=O)N[C@H]2Cc3cccc(C(=O)O)c3OB2O)s1 property_name=pKi measured=7.68
structure_smiles=O=C(O)c1c(F)ccc2c1OB(O)[C@@H]1C[C@H]21 property_name=pKi measured=8.72

Recorded pKi (compound O=C(O)c1cccc2c1OB(O)[C@@H](Sc1nncs1)C2 ): 6.82

Recorded pKi (compound O=C(O)C[C@@H]1CC[C@H](NC(=O)Cc2cccs2)B(O)O1 ): 7.25
